- System: Rattus norvegicus
- assay-text: Hypoglycemic activity in 48 hrs-fasted rat assessed as change in blood glucose level at dose equivalent to 102 mg of free base/kg, po measured at 2 hrs relative to control
- Format: functional
test-readout: Activity (%)
Field format: number, assumed %, no unit text.

> print(dat)
                                        mol  test.readout  value.units  test.value
1  O.[O-][Cl+3]([O-])([O-])[O-].c1ccc(-c2csc3cccc[n+]23)cc1      Activity            %         -16
2  Brc1ccc(-c2c[n+]3ccccc3s2)cc1.O.O=S(=O)([O-])O      Activity            %          -4
3        O.[Cl-].c1csc(-c2c[n+]3ccccc3s2)c1      Activity            %          -2
4  Nc1cccc(-c2c[n+]3ccccc3s2)c1.[O-][Cl+3]([O-])([O-])[O-]      Activity            %         -16

Okay, next one:
query: # lookup: Activity of O.[Cl-].c1ccc(-c2ccc(-c3c[n+]4ccccc4s3)cc2)cc1
result: -12

Value source: ChEMBL document CHEMBL3244075
